Reference for the values: patent US10577363B2

Overview of recorded pIC50 for various compounds
- assay_system: SMYD3 (Homo sapiens (Human), UniProt Q9H7B4)
- Sequence (Q9H7B4 whole entry): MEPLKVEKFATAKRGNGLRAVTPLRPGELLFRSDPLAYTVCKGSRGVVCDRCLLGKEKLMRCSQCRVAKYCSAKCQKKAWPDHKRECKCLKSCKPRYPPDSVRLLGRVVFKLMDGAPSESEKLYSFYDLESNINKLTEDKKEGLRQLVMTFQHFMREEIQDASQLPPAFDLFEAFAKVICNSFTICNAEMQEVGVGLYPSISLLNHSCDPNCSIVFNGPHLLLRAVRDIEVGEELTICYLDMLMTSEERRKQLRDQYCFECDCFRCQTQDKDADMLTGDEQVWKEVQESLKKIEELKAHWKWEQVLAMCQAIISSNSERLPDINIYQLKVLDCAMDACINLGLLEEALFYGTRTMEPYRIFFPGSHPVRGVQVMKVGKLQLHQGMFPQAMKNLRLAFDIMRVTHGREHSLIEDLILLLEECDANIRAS
- measurement_notes: SMYD3 biochemical assay (SPA, 3H-SAM methylation of MEKK2 protein substrate)
- experimental_context: read-out: SMYD3 Biochem IC50*
pIC50: −log10 of the molar value.
value_type: pIC50

compound	value_measured
CCc1cc(C(=O)N[C@H]2C[C@H]3CC[C@@H](C2)N3S(=O)(=O)[C@H]2CC[C@@H](N)CC2)no1	8.56
C[C@H]1CN(S(=O)(=O)[C@H]2CC[C@H](N(C)C)CC2)CC[C@H]1NC(=O)c1cc(C2CC2)on1	8.32
CC1(N)CCN(S(=O)(=O)N2[C@@H]3CC[C@H]2C[C@@H](NC(=O)c2cc(C4CC4)on2)C3)CC1	8.72
O=C(N[C@H]1C[C@H]2CC[C@@H](C1)N2S(=O)(=O)N1CC2(CCN(Cc3ccccc3)CC2)C1)c1cc(C2CC2)on1	8.41
O=C(N[C@H]1C[C@H]2CC[C@@H](C1)N2S(=O)(=O)N1CC2CCC(C1)N2Cc1ccccc1)c1cc(C2CC2)on1	7.77
O=C(N[C@H]1C[C@H]2CC[C@@H](C1)N2S(=O)(=O)N1CCC(NCCCO)CC1)c1cc(C2CC2)on1	8.28
NCCc1ccc(S(=O)(=O)N2[C@@H]3CC[C@H]2C[C@@H](NC(=O)c2cc(C4CC4)on2)C3)cc1	7.10
CN(C)C1CCN(S(=O)(=O)N2[C@@H]3CC[C@H]2C[C@@H](NC(=O)c2cc(C4CC4)on2)C3)CC1	8.62
O=C(N[C@H]1C[C@H]2CC[C@@H](C1)N2S(=O)(=O)N1CCC(Nc2ncccn2)CC1)c1cc(C2CC2)on1	7.12
C[C@H]1C[C@@H](NC(=O)c2cc(C3CC3)on2)CCN1S(=O)(=O)C[C@@H]1CCC[C@@H](N)C1	8.49
CC(C)c1cc(C(=O)N[C@H]2C[C@H]3CC[C@@H](C2)N3S(=O)(=O)CC2CCN(C)CC2)no1	7.97
C[C@H](NC1CCN(S(=O)(=O)N2[C@@H]3CC[C@H]2C[C@@H](NC(=O)c2cc(C4CC4)on2)C3)CC1)c1ccc(F)cc1	7.32
CC1CN(S(=O)(=O)N2[C@@H]3CC[C@H]2C[C@@H](NC(=O)c2cc(C4CC4)on2)C3)C(C)CN1C (some centres unmarked)	7.32
O=C(N[C@H]1C[C@H]2CC[C@@H](C1)N2S(=O)(=O)N1CCC(NCCCN2CCOCC2)CC1)c1cc(C2CC2)on1	7.68
C[C@H](N)c1ccc(S(=O)(=O)N2[C@@H]3CC[C@H]2C[C@@H](NC(=O)c2cc(C4CC4)on2)C3)cc1	7.43
CC1CN(C)CCN1S(=O)(=O)N1[C@@H]2CC[C@H]1C[C@@H](NC(=O)c1cc(C3CC3)on1)C2 (some centres unmarked)	7.28
C[C@@H](N)c1ccc(S(=O)(=O)N2[C@@H]3CC[C@H]2C[C@@H](NC(=O)c2cc(C4CC4)on2)C3)cc1	7.37
CN[C@H]1CC[C@H](S(=O)(=O)N2[C@@H]3CC[C@H]2C[C@@H](NC(=O)c2cc(C4CC4)on2)C3)CC1	8.86
C[C@H]1C[C@@H](NC(=O)c2cc(C3CC3)on2)CCN1S(=O)(=O)N1C2CNCC1C2	8.38
C[C@H]1CN(S(=O)(=O)N2[C@@H]3CC[C@H]2C[C@@H](NC(=O)c2cc(C4CC4)on2)C3)[C@@H](C)CN1	7.63

---

- assay_system: SMYD3 (Homo sapiens (Human))
- measurement_notes: SMYD3 cell assay (Trimethyl-MEKK2 In-Cell Western in 293T/17 cells)
- Assay type: cell-based
- experimental_context: 293T/17 cells; read-out: SMYD3 Cell IC50 (μM)*
value_type: IC50

item_smiles	value_measured
O=C(N[C@@H]1CCN(C(=O)CC2CCNCC2)[C@H](Cc2ccccc2)C1)c1cc(C2CC2)on1	> 40 µM
O=C(N[C@H]1C[C@H]2CC[C@@H](C1)N2S(=O)(=O)c1ccccc1)c1cc(C2CC2)on1	> 10 µM
O=C(N[C@H]1C[C@H]2CC[C@@H](C1)N2S(=O)(=O)c1ccc2[nH]c(=O)[nH]c2c1)c1cc(C2CC2)on1	> 10 µM

---

Listing of entries alongside the reported IC50.
- assay_system: UniProtKB Q9H7B4
- measurement_notes: SMYD3 cell assay (Trimethyl-MEKK2 In-Cell Western in 293T/17 cells)
- Assay type: cell-based
- experimental_context: average of n = 1 to n = 50; read-out: SMYD3 Cell IC50

compound	assay_system	measurement_units	IC50
O=C(N[C@H]1C[C@H]2CC[C@@H](C1)N2S(=O)(=O)CCCNCCN1CCOCC1)c1cc(C2CC2)on1	UniProtKB Q9H7B4	nM	886
O=C(N[C@H]1CCN(S(=O)(=O)CC2CCNCC2)[C@H](Cc2ccccc2)C1)c1cc(C2CC2)on1	UniProtKB Q9H7B4	nM	1950
O=C(N[C@H]1C[C@H]2CC[C@@H](C1)N2S(=O)(=O)N1CCNC(Cc2ccccc2)C1)c1cc(C2CC2)on1 (some centres unmarked)	UniProtKB Q9H7B4	nM	3560
C[C@H]1C[C@@H](NC(=O)c2cc(C3CC3)on2)CCN1S(=O)(=O)C(CCN)c1ccccc1 (some centres unmarked)	UniProtKB Q9H7B4	nM	1830
CN(C1CCNCC1)S(=O)(=O)N1CC[C@@H](NC(=O)c2cc(C3CC3)on2)C[C@H]1Cc1ccccc1	UniProtKB Q9H7B4	nM	7610
Nc1cc(S(=O)(=O)N2[C@@H]3CCC[C@H]2C[C@@H](NC(=O)c2cc(C4CC4)on2)C3)ccn1	UniProtKB Q9H7B4	nM	1320
C[C@H]1C[C@@H](NC(=O)c2cc(C3CC3)on2)CCN1S(=O)(=O)CCCNCC(C)(C)C	UniProtKB Q9H7B4	nM	318
O=C(N[C@@H]1CCN(S(=O)(=O)CC2CCNCC2)[C@@H](Cc2ccccc2)C1)c1cc(C2CC2)on1	UniProtKB Q9H7B4	nM	2730
O=C(N[C@@H]1CCN(S(=O)(=O)C2CCNC2)[C@H](Cc2ccccc2)C1)c1cc(C2CC2)on1 (some centres unmarked)	UniProtKB Q9H7B4	nM	2490
C[C@@H]1CN(S(=O)(=O)CCN)[C@H](C)C[C@@H]1NC(=O)c1cc(C2CC2)on1	UniProtKB Q9H7B4	nM	783
O=C(N[C@H]1CCN(S(=O)(=O)CC2CCN(CCO)CC2)[C@@H](Cc2ccccc2)C1)c1cc(C2CC2)on1	UniProtKB Q9H7B4	nM	1550
O=C(N[C@H]1CCN(S(=O)(=O)CC2CCCN2)[C@@H](Cc2ccccc2)C1)c1cc(C2CC2)on1 (some centres unmarked)	UniProtKB Q9H7B4	nM	2640
C[C@@H]1CN(S(=O)(=O)CCN2CCCC2)[C@H](C)C[C@@H]1NC(=O)c1cc(C2CC2)on1	UniProtKB Q9H7B4	nM	1660
O=C(N[C@@H]1C[C@H]2CC[C@@H](C1)N2S(=O)(=O)CC1CCCNC1)c1cc(C2CC2)on1 (some centres unmarked)	UniProtKB Q9H7B4	nM	1830
CN(C)CCS(=O)(=O)N1[C@@H]2CC[C@H]1C[C@@H](NC(=O)c1cc(C3CC3)on1)C2	UniProtKB Q9H7B4	nM	388
CN(C1CCNCC1)S(=O)(=O)N1[C@@H]2CCC[C@H]1C[C@@H](NC(=O)c1cc(C3CC3)on1)C2	UniProtKB Q9H7B4	nM	2660
C[C@@H]1C[C@H](NC(=O)c2cc(C3CC3)on2)CCN1C(=O)c1ccc(OCCN)cc1	UniProtKB Q9H7B4	nM	5580

---

Property: IC50; scope: individual molecules
- assay_system: SMYD3 (Homo sapiens (Human))
- measurement_notes: SMYD3 biochemical assay (SPA, 3H-SAM methylation of MEKK2 protein substrate)
- experimental_context: read-out: SMYD3 Biochem IC50*

item_smiles	IC50, nM
C[C@H]1C[C@@H](NS(=O)(=O)N2[C@@H]3CC[C@H]2C[C@@H](NC(=O)c2cc(C4CC4)on2)C3)CCN1	12.1
CN1CCC(NS(=O)(=O)N2[C@@H]3CC[C@H]2C[C@@H](NC(=O)c2cc(C4CC4)on2)C3)CC1	13.7
CN(Cc1ccccc1)C1CCN(S(=O)(=O)N2[C@@H]3CC[C@H]2C[C@@H](NC(=O)c2cc(C4CC4)on2)C3)CC1	10.8
C[C@@H]1C[C@@H](NS(=O)(=O)N2[C@@H]3CC[C@H]2C[C@@H](NC(=O)c2cc(C4CC4)on2)C3)CCN1	10
